- System under test: T1, human Trop-2-His protein (human, UniProt P09758 27-274)
- T1 construct: extracellular domain; Assay paragraphs say only 'Trop-2-His'; also called hTrop-2; Kactus Cat #TRP-HM121; not shown: His tag
- T1 sequence (looked up): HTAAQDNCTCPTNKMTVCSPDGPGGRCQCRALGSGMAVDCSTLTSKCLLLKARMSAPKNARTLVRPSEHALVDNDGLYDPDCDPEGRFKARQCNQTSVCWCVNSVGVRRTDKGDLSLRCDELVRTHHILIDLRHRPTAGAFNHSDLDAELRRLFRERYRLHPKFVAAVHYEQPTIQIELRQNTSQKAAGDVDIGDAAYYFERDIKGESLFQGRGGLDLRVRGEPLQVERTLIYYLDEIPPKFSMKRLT
- Test name: BLI (Gator Prime), LEM supernatant Ab on HFC probe
Readout label: pKd
When answering, recall that pKd equals minus log10 of the concentration in mol/L, and write that number alone.

Illustrative cases are given below, each with its answer.
63H3 (antibody, V domains shown, Rabbit-derived clone; LEM construct: VH + rabbit IgG CH1 + human IgG1 CH2-CH3) VH: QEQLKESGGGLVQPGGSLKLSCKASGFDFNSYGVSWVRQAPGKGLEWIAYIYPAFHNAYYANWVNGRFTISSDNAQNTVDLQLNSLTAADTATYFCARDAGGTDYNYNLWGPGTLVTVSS VL: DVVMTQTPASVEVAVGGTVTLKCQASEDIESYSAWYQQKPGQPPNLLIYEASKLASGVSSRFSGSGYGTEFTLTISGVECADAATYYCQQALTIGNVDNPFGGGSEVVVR : 9.66
71F10 (antibody, V domains shown, Rabbit-derived clone; LEM construct: VH + rabbit IgG CH1 + human IgG1 CH2-CH3) VH: QSLEESGGGLVQPGASLTLTCTVSGFDFSSNAMTWVRQAPGEGLEYIGFIGIRGNIYYANWAKGRFTISKTSSTTVTLQMTSLTVADTATYFCARGGLWTGNSYFDLWGPGTLVTVSS VL: YDMTQTPASVSAAVGGTVTINCQASESISRYLAWYQQKPGQPPKPLIYRASTLASGVPSRFKGSGTGTDYTLTISDLECADAATYYCQQGYGYSTVGNAFGGGTEVVVK : 9.16
72F12 (antibody, V domains shown, Rabbit-derived clone; LEM construct: VH + rabbit IgG CH1 + human IgG1 CH2-CH3) VH: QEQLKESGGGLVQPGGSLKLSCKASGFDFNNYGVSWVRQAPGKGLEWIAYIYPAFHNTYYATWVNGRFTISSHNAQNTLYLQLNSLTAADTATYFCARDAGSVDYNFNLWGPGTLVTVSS VL: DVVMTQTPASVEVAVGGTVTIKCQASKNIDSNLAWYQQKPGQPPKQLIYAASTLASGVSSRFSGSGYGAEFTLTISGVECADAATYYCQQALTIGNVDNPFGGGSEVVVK : 9.24
74F11/15F5 (antibody, human IgG1, V domains shown, LEM construct: VH + rabbit IgG CH1 + human IgG1 CH2-CH3) VH: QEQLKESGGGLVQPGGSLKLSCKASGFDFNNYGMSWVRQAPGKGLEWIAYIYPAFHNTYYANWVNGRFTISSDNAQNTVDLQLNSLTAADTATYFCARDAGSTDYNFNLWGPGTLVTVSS VL: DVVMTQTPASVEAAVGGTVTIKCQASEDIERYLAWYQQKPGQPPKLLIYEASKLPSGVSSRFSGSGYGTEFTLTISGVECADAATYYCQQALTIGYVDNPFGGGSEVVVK : 9.49

# evaluate next
IN: Which pKd value belongs to 69H10 (antibody, V domains shown, Rabbit-derived clone; LEM construct: VH + rabbit IgG CH1 + human IgG1 CH2-CH3) VH: QEQLKESGGGLVQPGGSLKLSCKASGFDFNKYGVSWVRQAPGKGLEWIAYIYPAFHNTYYATWVNGRFTISSHNAQNTLYLQLNTLTAADTATYFCARDAGTTDYNFNLWGPGTLVTVSS VL: DVVMTQTASPVSAAVGGTVTIKCQASQSIYSYLSWYQQKPGQPPKLLIYEASKLASGVSSRFSGSGYGTEFTLTISGVECADAATYYCQQALTVGNVDNPFGGGSEVVVK ?
OUT: 9.00
